Sourced from PubChem BioAssay AID1963843

# viability, T/C values compiled below
# Test system: 616215-338-R-J1-PDC complex spheroid viability
# EXPERIMENTAL PROTOCOL: Anticancer human tumor 616215-338-R-J1-PDC patient-derived colon adenocarcinoma cell line growth inhibition [POLQ]
# EXPERIMENTAL CONDITIONS: second compound 0.0316 µM; first compound 3.16 µM; stronger effect = lower value
ASSAY METRIC: viability, T/C

[[record]]
compound = "C=CC(=O)N1CCN(c2nc(=O)n(-c3c(C)ccnc3C(C)C)c3nc(-c4c(O)cccc4F)c(F)cc23)C(C)C1 (stereo unspecified) + COC1C(OC(N)=O)C(O)C(Oc2ccc3c(O)c(NC(=O)c4ccc(O)c(CC=C(C)C)c4)c(=O)oc3c2C)OC1(C)C"
assay_metric = "viability, T/C"
experimental_value = "113%"

[[record]]
compound = "CC1COCCN1c1cc(C2(S(C)(=N)=O)CC2)nc(-c2ccnc3[nH]ccc23)n1 (stereo unspecified) + Cc1cccc(N(C)C(=O)C2C(O)CCN2c2nc(C)cc(C(F)(F)F)c2C#N)c1"
assay_metric = "viability, T/C"
experimental_value = "101%"

[[record]]
compound = "CNCc1ccc(-c2[nH]c3cc(F)cc4c3c2CCNC4=O)cc1 + Cc1cccc(N(C)C(=O)C2C(O)CCN2c2nc(C)cc(C(F)(F)F)c2C#N)c1"
assay_metric = "viability, T/C"
experimental_value = "106%"

[[record]]
compound = "O=C(Nc1ccc(O)c(NS(=O)(=O)c2ccc(F)cc2)c1)c1ccc(-c2ccccc2)cc1 + Cc1cccc(N(C)C(=O)C2C(O)CCN2c2nc(C)cc(C(F)(F)F)c2C#N)c1"
assay_metric = "viability, T/C"
experimental_value = "101%"

[[record]]
compound = "O=c1[nH]cc(F)c(=O)[nH]1 + Nc1ccc(C#CCN(C(=O)Cc2ncc(C(F)(F)F)cc2C(F)(F)F)c2ccc(F)cc2)nn1"
assay_metric = "viability, T/C"
experimental_value = "35.9%"

[[record]]
compound = "CC1COCCN1c1cc(C2(O)CC3CCC(C2)O3)c2cnn(-c3ccn[nH]3)c2n1 (stereo unspecified) + Nc1ccc(C#CCN(C(=O)Cc2ncc(C(F)(F)F)cc2C(F)(F)F)c2ccc(F)cc2)nn1"
assay_metric = "viability, T/C"
experimental_value = "24.3%"


* * *

# System: 616215-338-R-J1-PDC complex spheroid viability
# EXPERIMENTAL PROTOCOL: Anticancer human tumor 616215-338-R-J1-PDC cell line growth inhibition [POLQ];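 also: spheroids exposed to compounds for one week before readout; percent viability relative to DMSO vehicle wells taken as 100%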
# EXPERIMENTAL CONDITIONS: second compound 0.1 µM; first compound 0.1 µM; stronger effect = lower value
# Description: Multicellular complex tumor spheroid response to Polymerase (POL) inhibitors (novobiocin, ART-558, RP6685) in combination with a variety of drugs and investigational agents in selected tumor cell lines The POL inhibitors (novobiocin, ART-558, and RP6685) were evaluated both individually and in combination with standard of care and investigational anticancer small molecules within a complex spheroid model of solid tumors. . […]
ASSAY METRIC: viability, T/C (%)

[[record]]
molecule = "O=C(Nc1ccc(O)c(NS(=O)(=O)c2ccc(F)cc2)c1)c1ccc(-c2ccccc2)cc1 + COC1C(OC(N)=O)C(O)C(Oc2ccc3c(O)c(NC(=O)c4ccc(O)c(CC=C(C)C)c4)c(=O)oc3c2C)OC1(C)C"
assay_metric = "viability, T/C"
experimental_value = 100

[[record]]
molecule = "CCCS(=O)(=O)Nc1ccc(F)c(C(=O)c2c[nH]c3ncc(-c4ccc(Cl)cc4)cc23)c1F + Cc1cccc(N(C)C(=O)C2C(O)CCN2c2nc(C)cc(C(F)(F)F)c2C#N)c1"
assay_metric = "viability, T/C"
experimental_value = 109

[[record]]
molecule = "CC(C)n1c(=O)n(C)c2cnc3cc(F)c(-c4ccc(OCCCN5CCCCC5)nc4)cc3c21 + Cc1cccc(N(C)C(=O)C2C(O)CCN2c2nc(C)cc(C(F)(F)F)c2C#N)c1"
assay_metric = "viability, T/C"
experimental_value = 113

[[record]]
molecule = "COc1ccc([C@@H](O)c2cc(-c3ncnc4cc(N5CCOCC5)ccc34)c(F)cc2Cl)nn1 + Cc1cccc(N(C)C(=O)C2C(O)CCN2c2nc(C)cc(C(F)(F)F)c2C#N)c1"
assay_metric = "viability, T/C"
experimental_value = 108

[[record]]
molecule = "COc1cc2cc(C(=O)CCC(=O)O)sc2cc1OC + Nc1ccc(C#CCN(C(=O)Cc2ncc(C(F)(F)F)cc2C(F)(F)F)c2ccc(F)cc2)nn1"
assay_metric = "viability, T/C"
experimental_value = 106

[[record]]
molecule = "CNCc1ccc(-c2[nH]c3cc(F)cc4c3c2CCNC4=O)cc1 + Nc1ccc(C#CCN(C(=O)Cc2ncc(C(F)(F)F)cc2C(F)(F)F)c2ccc(F)cc2)nn1"
assay_metric = "viability, T/C"
experimental_value = 111

[[record]]
molecule = "CC[C@@]1(O)C(=O)OCc2c1cc1n(c2=O)Cc2cc3c(CN(C)C)c(O)ccc3nc2-1 + Nc1ccc(C#CCN(C(=O)Cc2ncc(C(F)(F)F)cc2C(F)(F)F)c2ccc(F)cc2)nn1"
assay_metric = "viability, T/C"
experimental_value = 37.5

[[record]]
molecule = "C=CC(=O)N1CCN(c2nc(=O)n(-c3c(C)ccnc3C(C)C)c3nc(-c4c(O)cccc4F)c(F)cc23)C(C)C1 (stereo unspecified) + Cc1cccc(N(C)C(=O)C2C(O)CCN2c2nc(C)cc(C(F)(F)F)c2C#N)c1"
assay_metric = "viability, T/C"
experimental_value = 95.3

[[record]]
molecule = "CNCc1ccc(-c2[nH]c3cc(F)cc4c3c2CCNC4=O)cc1 + COC1C(OC(N)=O)C(O)C(Oc2ccc3c(O)c(NC(=O)c4ccc(O)c(CC=C(C)C)c4)c(=O)oc3c2C)OC1(C)C"
assay_metric = "viability, T/C"
experimental_value = 102

[[record]]
molecule = "COc1cc(C2c3cc4c(cc3C(OC3OC5COC(C)OC5C(O)C3O)C3COC(=O)C23)OCO4)cc(OC)c1O (stereo unspecified) + COC1C(OC(N)=O)C(O)C(Oc2ccc3c(O)c(NC(=O)c4ccc(O)c(CC=C(C)C)c4)c(=O)oc3c2C)OC1(C)C"
assay_metric = "viability, T/C"
experimental_value = 117

[[record]]
molecule = "COc1cc(C2c3cc4c(cc3C(OC3OC5COC(C)OC5C(O)C3O)C3COC(=O)C23)OCO4)cc(OC)c1O (stereo unspecified) + Cc1cccc(N(C)C(=O)C2C(O)CCN2c2nc(C)cc(C(F)(F)F)c2C#N)c1"
assay_metric = "viability, T/C"
experimental_value = 95.5

